species on record: Homo sapiens; test: Selectivity ratio of IC50 for alpha4beta2 nAChR (unknown origin) expressed in Xenopus laevis oocytes to IC50 for alpha3beta4 nAChR (unknown origin) expressed in Xenopus laevis oocytes; type: cell-based
In this section we review reported Ratio IC50 values for a set of compounds.
// return just the number, without any unit appended

Use the examples below as a reference point.
compound | parameter | readoutNumber
CCCC(=O)N[C@@H](Cc1ccc(O)cc1)C(=O)NCCCNC[C@@H]1C[C@H]1CNCCCN | Ratio IC50 | 48.2
NCCCNCCCCNCCCNC(=O)[C@H](CC1CCCCC1)NC(=O)CC1CC2CCC1C2 (stereo partly drawn) | Ratio IC50 | 26.9
NCCCNCCCCNCCCNC(=O)[C@H](CC1CCCCC1)NC(=O)C1CCCC1 | Ratio IC50 | 8.4
CCCC(=O)N[C@@H](Cc1ccc(O)cc1)C(=O)NCCCNC[C@H]1C[C@H]1CNCCCN | Ratio IC50 | 32.9
NCCCNCCCCNCCCNC(=O)[C@H](CC1CCCCC1)NC(=O)C1CCCCC1 | Ratio IC50 | 14.3
CCCC(=O)N[C@@H](Cc1ccccc1)C(=O)NCCCNCCCCNCCCN | Ratio IC50 | 29.9

Fill blank: measured Ratio IC50 of the compound NCCCNCCCCNCCCNC(=O)[C@H](CC1CCCCC1)NC(=O)C1CCCCCC1 is ____.
51.3

Now try NCCCNCCCCNCCCNC(=O)[C@H](CC1CCCCC1)NC(=O)/C=C/c1ccccc1 .
34.6

Now try CCCC(=O)N[C@@H](Cc1ccc(O)cc1)C(=O)NCCCNCCCCNCCCN [PHILANTHOTOXIN 343] .
10.5

And for NCCCNCCCCNCCCNC(=O)[C@H](CC1CCCCC1)NC(=O)C1CCC1 ?
19.4

Quick one: CCCC(=O)N[C@@H](CCc1ccccc1)C(=O)NCCCNCCCCNCCCN
12

Quick one: NCCCNCCCCNCCCNC(=O)[C@H](CC1CCCCC1)NC(=O)c1ccc(-c2ccccc2)cc1
9.1

Quick one: CCCC(=O)N[C@@H](CC1CCCCC1)C(=O)NCCCNCCCCNCCCN
1

----------
Listed here are compounds together with their documented pIC50.
target: Neuronal acetylcholine receptor; alpha4/beta2 (Homo sapiens, UniProt P17787+P43681); test: Antagonist activity at alpha4beta2 nAChR (unknown origin) expressed in Xenopus laevis oocytes assessed as inhibition of Ach-induced channel activation at -100 mV holding potential treated for 1 min by two electrode voltage-clamp assay
Sequence (P17787 whole entry): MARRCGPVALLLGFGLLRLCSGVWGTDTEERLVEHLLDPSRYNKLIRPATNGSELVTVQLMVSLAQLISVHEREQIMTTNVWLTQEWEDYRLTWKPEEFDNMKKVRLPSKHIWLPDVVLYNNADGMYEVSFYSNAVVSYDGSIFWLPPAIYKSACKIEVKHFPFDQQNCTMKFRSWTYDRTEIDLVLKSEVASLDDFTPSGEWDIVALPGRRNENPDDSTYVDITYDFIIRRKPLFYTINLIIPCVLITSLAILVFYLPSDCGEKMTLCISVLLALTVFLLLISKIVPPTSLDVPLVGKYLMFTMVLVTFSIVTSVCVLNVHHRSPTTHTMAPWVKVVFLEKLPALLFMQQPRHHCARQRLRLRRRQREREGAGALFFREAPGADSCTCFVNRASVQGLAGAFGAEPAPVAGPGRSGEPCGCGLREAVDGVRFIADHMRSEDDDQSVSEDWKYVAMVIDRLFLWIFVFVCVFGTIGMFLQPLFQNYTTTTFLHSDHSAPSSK
Sequence (P43681 whole entry): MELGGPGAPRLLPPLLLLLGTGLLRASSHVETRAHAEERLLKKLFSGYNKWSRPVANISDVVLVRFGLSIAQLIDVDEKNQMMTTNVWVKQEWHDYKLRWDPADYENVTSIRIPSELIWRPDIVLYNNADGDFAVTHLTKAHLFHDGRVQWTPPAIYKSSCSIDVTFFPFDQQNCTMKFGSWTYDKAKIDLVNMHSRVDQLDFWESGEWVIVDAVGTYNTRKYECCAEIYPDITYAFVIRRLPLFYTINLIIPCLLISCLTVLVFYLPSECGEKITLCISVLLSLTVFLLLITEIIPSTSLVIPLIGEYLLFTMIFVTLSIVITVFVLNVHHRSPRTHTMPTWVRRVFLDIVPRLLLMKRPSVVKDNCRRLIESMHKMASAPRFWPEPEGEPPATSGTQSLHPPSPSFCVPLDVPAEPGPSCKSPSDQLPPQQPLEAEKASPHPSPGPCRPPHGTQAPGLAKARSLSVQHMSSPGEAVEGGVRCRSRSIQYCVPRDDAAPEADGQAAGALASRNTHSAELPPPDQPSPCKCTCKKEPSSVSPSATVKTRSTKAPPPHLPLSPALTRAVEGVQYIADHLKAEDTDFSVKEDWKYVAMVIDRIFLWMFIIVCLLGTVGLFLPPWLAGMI
API: returns pIC50 as number; meaning -log10 of concentration in mol/L.

smilesEntry | targetOrTestSystem | pIC50
CCCC(=O)N[C@@H](Cc1ccc(O)cc1)C(=O)NCCCNC[C@H]1C[C@H]1CNCCCN | Neuronal acetylcholine receptor; alpha4/beta2 (Homo sapiens, UniProt P17787+P43681) | 7.32
NCCCNCCCCNCCCNC(=O)[C@H](CC1CCCCC1)NC(=O)c1ccc(-c2ccccc2)cc1 | Neuronal acetylcholine receptor; alpha4/beta2 (Homo sapiens, UniProt P17787+P43681) | 7.59

What value of pIC50 has been reported for the following compound? NCCCNCCCCNCCCNC(=O)[C@H](Cc1ccc(O)cc1)NC(=O)C1CCCC1
7.65

And what about the compound NCCCNCCCCNCCCNC(=O)[C@H](CC1CCCCC1)NC(=O)C1CCCCCC1 ?
7.55

Then NCCCNCCCCNCCCNC(=O)[C@H](Cc1ccc(O)cc1)NC(=O)C1CCCCC1 ?
7.44

One more compound: CCCC(=O)N[C@@H](Cc1ccccc1)C(=O)NCCCNCCCCNCCCN
7.56

Query NCCCNCCCCNCCCNC(=O)[C@H](CC1CCCCC1)NC(=O)C1CCCC1 next
8.27

For NCCCNCCCCNCCCNC(=O)[C@H](CC1CCCCC1)NC(=O)C1CCC1 then?
7.68

Now try NCCCNCCCCNCCCNC(=O)[C@H](CC1CCCCC1)NC(=O)Cc1cccc2ccccc12 .
7.84

Same question for NCCCNCCCCNCCCNC(=O)[C@H](CC1CCCCC1)NC(=O)C1CCCCC1 please.
7.50

----------
target: Neuronal acetylcholine receptor; alpha4/beta2 (Homo sapiens, UniProt P17787+P43681); experiment: Antagonist activity at alpha4beta2 nAChR (unknown origin) expressed in Xenopus laevis oocytes assessed as inhibition of Ach-induced channel activation at -100 mV holding potential treated for 1 min by two electrode voltage-clamp assay relative to PhTX-343 IC50; type: cell-based
Entries and their Ratio IC50 values follow.
Reply briefly: the number, and no unit.

smilesEntry | parameter | readoutNumber
NCCCNCCCCNCCCNC(=O)[C@H](CC1CCCCC1)NC(=O)C1CC1 | Ratio IC50 | 0.7
CCCC(=O)N[C@@H](Cc1ccc(O)cc1)C(=O)NCCCNC[C@H]1C[C@H]1CNCCCN | Ratio IC50 | 1.7
NCCCNCCCCNCCCNC(=O)[C@H](Cc1ccc(O)cc1)NC(=O)C1CCCC1 | Ratio IC50 | 3.6
CCCC(=O)N[C@@H](CCc1ccccc1)C(=O)NCCCNCCCCNCCCN | Ratio IC50 | 3.9
CCCC(=O)N[C@@H](Cc1ccc(O)cc1)C(=O)NCCCNC[C@@H]1C[C@H]1CNCCCN | Ratio IC50 | 1.8
NCCCNCCCCNCCCNC(=O)[C@H](Cc1ccc(O)cc1)NC(=O)C1CCCCC1 | Ratio IC50 | 2.2

# next compound below
Quick check: Ratio IC50 of NCCCNCCCCNCCCNC(=O)[C@H](CC1CCCCC1)NC(=O)c1ccccc1 ?
3.7

----------
biological target: Neuronal acetylcholine receptor; alpha3/beta4 (Homo sapiens, UniProt P30926+P32297); test: Antagonist activity at alpha3beta4 nAChR (unknown origin) expressed in Xenopus laevis oocytes assessed as inhibition of Ach-induced channel activation at -100 mV holding potential treated for 1 min by two electrode voltage-clamp assay
Sequence (P30926 whole entry): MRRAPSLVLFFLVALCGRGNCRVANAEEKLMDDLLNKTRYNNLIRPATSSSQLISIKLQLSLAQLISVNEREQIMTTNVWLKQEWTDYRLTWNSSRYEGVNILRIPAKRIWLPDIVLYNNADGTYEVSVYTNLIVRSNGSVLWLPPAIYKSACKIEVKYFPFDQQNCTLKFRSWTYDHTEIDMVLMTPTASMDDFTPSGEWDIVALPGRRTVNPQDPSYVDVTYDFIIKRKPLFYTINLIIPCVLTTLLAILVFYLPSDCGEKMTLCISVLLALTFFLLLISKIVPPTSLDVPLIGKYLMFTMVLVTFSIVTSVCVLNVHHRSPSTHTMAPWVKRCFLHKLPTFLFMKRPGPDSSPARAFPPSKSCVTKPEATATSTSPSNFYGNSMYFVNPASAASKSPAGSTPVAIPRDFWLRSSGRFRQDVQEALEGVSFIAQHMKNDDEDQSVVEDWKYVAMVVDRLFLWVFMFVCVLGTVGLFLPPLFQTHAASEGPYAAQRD
Sequence (P32297 whole entry): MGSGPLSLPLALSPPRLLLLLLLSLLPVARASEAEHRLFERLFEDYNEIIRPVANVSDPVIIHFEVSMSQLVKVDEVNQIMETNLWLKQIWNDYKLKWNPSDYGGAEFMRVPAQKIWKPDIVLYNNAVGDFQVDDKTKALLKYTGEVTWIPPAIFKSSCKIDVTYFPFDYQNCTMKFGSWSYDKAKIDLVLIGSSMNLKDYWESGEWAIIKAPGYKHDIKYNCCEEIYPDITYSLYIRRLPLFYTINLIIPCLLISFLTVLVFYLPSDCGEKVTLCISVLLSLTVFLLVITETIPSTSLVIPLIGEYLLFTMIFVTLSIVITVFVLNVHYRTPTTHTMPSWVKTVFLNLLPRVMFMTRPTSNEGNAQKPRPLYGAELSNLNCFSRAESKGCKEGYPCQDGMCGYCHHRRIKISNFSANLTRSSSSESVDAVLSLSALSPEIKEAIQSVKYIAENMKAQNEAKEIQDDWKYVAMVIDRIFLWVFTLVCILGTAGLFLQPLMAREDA
Threshold 2 nM. IC50 below it: true. IC50 at it or above: false.

Worked cases, answers included:
smilesEntry | categoryLabel
NCCCNCCCCNCCCNC(=O)[C@H](CC1CCCCC1)NC(=O)C1CCCCC1 | false
CCCC(=O)N[C@@H](Cc1ccc(O)cc1)C(=O)NCCCNC[C@@H]1C[C@H]1CNCCCN | true
CCCC(=O)N[C@@H](Cc1ccccc1)C(=O)NCCCNCCCCNCCCN | true
NCCCNCCCCNCCCNC(=O)[C@H](CC1CCCCC1)NC(=O)C1CCCCCC1 | true
NCCCNCCCCNCCCNC(=O)[C@H](CC1CCCCC1)NC(=O)C1CCC1 | true

Let us examine a further case.
Strictly below 2 nM in IC50? NCCCNCCCCNCCCNC(=O)[C@H](CC1CCCCC1)NC(=O)c1ccc(-c2ccccc2)cc1
false
